# EXPERIMENTAL_TARGET: α-chymotrypsin (Bos taurus, UniProt P00766)
# Construct: purchased Sigma Chem. Co. C-3142
# ASSAY_INFO: Inhibition of α-chymotrypsin
# Assay type: biochemical
# CONDITION_SET: Table III; 10 uM; read-out: Chymotrypsin % I @ 10 uM
Square brackets hold non-standard residues; d marks the D form. Peptide text beside a SMILES is read from it. * marks the point of attachment. Tos = Cc1ccc(S(=O)(=O)*)cc1; dΔPro = O=C(O)[C@H]1C=CCN1
Measured inhibition at 10 µM, listed per entry.

| COMPOUND | UNIT_TAG | inhibition at 10 µM |
| --- | --- | --- |
| CS(=O)(=O)N[C@H](COCc1ccccc1)C(=O)N[C@H](C=[N+]([O-])Cc1ccccc1)Cc1ccccc1 [Compound 117] | % | 0 |
| C[N+]([O-])=C[C@H](Cc1ccccc1)NC(=O)[C@@H](COCc1ccccc1)NS(C)(=O)=O [Compound 116] | % | 0 |
| O=C[C@H](Cc1ccccc1)NC(=O)[C@H]1CCCN1S(=O)(=O)Cc1ccccc1 [Compound 102] | % | 0 |
| CS(=O)(=O)N[C@@H](C(=O)N[C@H](C=O)Cc1ccccc1)c1cccs1 [Compound 98] | % | 49 |
| Cc1ccc(S(=O)(=O)O[C@H]2C[C@H](C(=O)N[C@H](C=O)Cc3ccccc3)N(S(=O)(=O)c3ccccc3)C2)cc1 [Compound 113] | % | 0 |
| CS(=O)(=O)N[C@H](COCc1ccccc1)C(=O)N[C@@H](Cc1ccccc1)C1N(c2ccccc2)CCN1c1ccccc1 [Compound 132] | % | 0 |
| Cc1ccc(S(=O)(=O)N2CC=C[C@@H]2C(=O)N[C@H](C=O)Cc2ccccc2)cc1 [Compound 130] (Tos-[dΔPro]-Phe-aldehyde) | % | 0 |
| Cc1ccc(S(=O)(=O)N2CCC[C@@H]2C(=O)N[C@H](C=O)Cc2ccccc2)cc1 [Compound 120] (Tos-[dP]-Phe-aldehyde) | % | 12 |

---

Measured inhibition at 1 µM, listed per entry.
# EXPERIMENTAL_TARGET: cathepsin L (Homo sapiens, UniProt P07711)
# Construct: purchased Calbiochem 219402
# Sequence (P07711 114-288 limits assumed): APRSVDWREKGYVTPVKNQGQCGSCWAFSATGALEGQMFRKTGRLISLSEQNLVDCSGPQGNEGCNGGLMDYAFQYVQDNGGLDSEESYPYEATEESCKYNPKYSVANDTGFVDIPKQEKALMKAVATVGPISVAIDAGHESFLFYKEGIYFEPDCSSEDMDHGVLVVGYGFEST
# Sequence (P07711 292-333 limits assumed): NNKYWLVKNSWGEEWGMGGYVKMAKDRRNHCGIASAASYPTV
# ASSAY_INFO: Inhibition of cathepsin L
# Assay type: biochemical
# CONDITION_SET: Table III; 1 uM; read-out: Cat L % I @ 1 uM
Square brackets hold non-standard residues; d marks the D form. Peptide text beside a SMILES is read from it. * marks the point of attachment. Tos = Cc1ccc(S(=O)(=O)*)cc1; Abu = CC[C@H](N)C(=O)O; Bn = c1ccc(C*)cc1; Ms = CS(=O)(=O)*
READOUT: inhibition at 1 µM (%)

| COMPOUND | READOUT | RESULT_NUMBER |
| --- | --- | --- |
| CS(=O)(=O)N[C@H](COCc1ccccc1)C(=O)N[C@@H](Cc1ccccc1)C1OCCS1 (some centres unmarked) | inhibition at 1 µM | 55 |
| Cc1nn(C)c(Cl)c1S(=O)(=O)N[C@H](COCc1ccccc1)C(=O)N[C@H](C=O)Cc1ccccc1 | inhibition at 1 µM | 100 |
| CS(=O)(=O)N[C@H](COCc1ccccc1)C(=O)N[C@H](C=NNC(N)=O)Cc1ccccc1 | inhibition at 1 µM | 94 |
| CS(=O)(=O)N[C@H](COCc1ccccc1)C(=O)N[C@@H](Cc1ccccc1)C(O)CCc1ccccc1 (some centres unmarked) | inhibition at 1 µM | 17 |
| O=C[C@H](Cc1ccccc1)NC(=O)[C@@H](Cc1ccccc1)NS(=O)(=O)c1cccc2cccnc12 | inhibition at 1 µM | 100 |
| CS(=O)(=O)N[C@H](Cc1c[nH]c2ccccc12)C(=O)N[C@H](C=O)Cc1ccccc1 [Compound 77] (Ms-[dW]-Phe-aldehyde) | inhibition at 1 µM | 93 |
| O=C[C@H](Cc1ccccc1)NC(=O)[C@@H](COCc1ccccc1)NC(=O)OCc1ccccc1 | inhibition at 1 µM | 100 |
| CS(=O)(=O)N[C@H](COCc1ccccc1)C(=O)N[C@H](C=O)CCCCNS(=O)(=O)c1ccccc1 | inhibition at 1 µM | 100 |
| C[C@@H](NS(=O)(=O)c1ccccc1)C(=O)N[C@H](C=O)Cc1ccccc1 | inhibition at 1 µM | 97 |
| CS(=O)(=O)N[C@H](Cc1ccc(OCc2ccccc2)cc1)C(=O)N[C@H](C=O)Cc1ccccc1 [Compound 89] (Ms-[dY](Bn)-Phe-aldehyde) | inhibition at 1 µM | 97 |
| O=C[C@H](Cc1ccccc1)NC(=O)[C@@H](COCc1ccccc1)NS(=O)(=O)c1cccs1 | inhibition at 1 µM | 100 |
| Cc1ccc(S(=O)(=O)N2CCC[C@@H]2C(=O)N[C@H](C=O)Cc2ccccc2)cc1 [Compound 120] (Tos-[dP]-Phe-aldehyde) | inhibition at 1 µM | 65 |
| CC(=O)N[C@H](COCc1ccccc1)C(=O)N[C@H](C=O)Cc1ccccc1 | inhibition at 1 µM | 96 |
| CC[C@@H](C=O)NC(=O)[C@@H](COCc1ccccc1)NS(C)(=O)=O [Compound 41] (Ms-[dS](Bn)-[Abu]-aldehyde) | inhibition at 1 µM | 100 |
| CS(=O)(=O)N[C@H](CSCc1ccccc1)C(=O)N[C@H](C=O)Cc1ccccc1 [Compound 106] (Ms-[dC](Bn)-Phe-aldehyde) | inhibition at 1 µM | 100 |
| CS(=O)(=O)N[C@H](COCc1ccccc1)C(=O)N[C@H]1CCCCNC1=O | inhibition at 1 µM | 16 |
| CS(=O)(=O)N[C@H](C(=O)N[C@H](C=O)Cc1ccccc1)c1cccs1 | inhibition at 1 µM | 100 |
| Cc1noc(C)c1S(=O)(=O)N[C@H](COCc1ccccc1)C(=O)N[C@H](C=O)Cc1ccccc1 | inhibition at 1 µM | 100 |
| O=C[C@H](Cc1ccccc1)NC(=O)[C@@H](COCc1ccccc1)NS(=O)(=O)N1CCOCC1 | inhibition at 1 µM | 100 |
| CS(=O)(=O)N[C@H](COCc1ccccc1)C(=O)N[C@H](C=O)CCCCNC(=O)OCc1ccccc1 | inhibition at 1 µM | 100 |
| O=C[C@H](Cc1ccccc1)NC(=O)[C@H]1C[C@@H](OS(=O)(=O)c2ccccc2)CN1S(=O)(=O)c1ccccc1 | inhibition at 1 µM | 100 |
| Cc1ccc(S(=O)(=O)N[C@H](COCc2ccccc2)C(=O)N[C@H](C=O)Cc2ccccc2)cc1 | inhibition at 1 µM | 100 |
| O=C[C@H](Cc1ccccc1)NC(=O)[C@@H](COCc1ccccc1)NC(=O)C(c1ccccc1)c1ccccc1 | inhibition at 1 µM | 100 |
